EXPERIMENT_NOTES: Dissociation binding constant was determined for apoNCS binding site using fluorescence quenching titration assay
pKd: −log10 of the molar value.
VALUE_TYPE: pKd

                                   molecule  comparison_symbol  measurement
0  COc1cc(C)c2ccc(O)c(C(=O)OCCOC(=O)CCCc3ccc(N(CCCl)CCCl)cc3)c2c1                  <         3.00
1  COc1cc(C)c2ccc(O)c(C(=O)OCCOC(=O)C(N)Cc3ccc(N(CCCl)CCCl)cc3)c2c1 (configuration not stated)                  =         4.33
